Values from patent US10463709B2

System: HUVECs
Assay: Endothelial cell capillary-like tube formation assay
Type: cell-based
Details: VEGF (10 ng/mL) + 25 μM peptide; vs untreated HUVECs
Square brackets hold non-standard residues; d marks the D form. Ends that are not written are not given here.
# Tube length (Fold) per record follows
Please give a number only; it is taken to be in Fold.

Recorded Tube length (Fold), per entry:
Record summary for NH2-Asp-Leu-Trp-Arg-Ile-Arg-Ser-COOH (DLWRIRS; not fully specified (N-terminus, C-terminus); printed as NH2-Asp-Leu-Trp-Arg-Ile-Arg-Ser-COOH) [7-mer WI] : reported Tube length (Fold) = 1.23

Record summary for NH2-Asp-Leu-Tyr-Arg-Gln-Lys-Ser-COOH (DLYRQKS; not fully specified (N-terminus, C-terminus); printed as NH2-Asp-Leu-Tyr-Arg-Gln-Lys-Ser-COOH) [7-mer QK] : reported Tube length (Fold) = 1.46

Record summary for NH2-Asp-Leu-Tyr-Arg-Val-Arg-Ser-COOH (DLYRVRS; not fully specified (N-terminus, C-terminus); printed as NH2-Asp-Leu-Tyr-Arg-Val-Arg-Ser-COOH) [7-mer] : reported Tube length (Fold) = 1.24

Record summary for NH2-Asp-Leu-Tyr-Lys-Val-Pro-Ser-COOH (DLYKVPS; not fully specified (N-terminus, C-terminus); printed as NH2-Asp-Leu-Tyr-Lys-Val-Pro-Ser-COOH) [7-mer KP] : reported Tube length (Fold) = 1.62

Record summary for NH2-Asn-Val-Tyr-Arg-Val-Arg-Ser-COOH (NVYRVRS; not fully specified (N-terminus, C-terminus); printed as NH2-Asn-Val-Tyr-Arg-Val-Arg-Ser-COOH) [7-mer NV] : reported Tube length (Fold) = 1.41

---
Record summary for NH2-Asp-Ile-Tyr-Arg-Val-Pro-Ser-COOH (DIYRVPS; not fully specified (N-terminus, C-terminus); printed as NH2-Asp-Ile-Tyr-Arg-Val-Pro-Ser-COOH) [7-mer IP] : reported Tube length (Fold) = 1.66

Record summary for NH2-Asp-Leu-Tyr-Arg-Leu-Arg-Ser-COOH (DLYRLRS; not fully specified (N-terminus, C-terminus); printed as NH2-Asp-Leu-Tyr-Arg-Leu-Arg-Ser-COOH) [7-mer (V→L)] : reported Tube length (Fold) = 1.41

Record summary for NH2-(D-Asp)-Leu-Tyr-Arg-Val-Arg-Ser-COOH (H-[dD]LYRVRS-OH) [7-mer DD] : reported Tube length (Fold) = 1.33

Record summary for NH2-Asp-Leu-Tyr-Arg-Met-Lys-Ser-COOH (DLYRMKS; not fully specified (N-terminus, C-terminus); printed as NH2-Asp-Leu-Tyr-Arg-Met-Lys-Ser-COOH) [7-mer MK] : reported Tube length (Fold) = 1.18

Record summary for NH2-Asp-Leu-Tyr-Arg-Val-Arg-(D-Ser)-COOH (H-DLYRVR[dS]-OH) [7-mer DS] : reported Tube length (Fold) = 3.45
